Catalogue of compounds with associated IC 50
- System: rabbit anti-SDMA antibody in serum, Rabbit # 157 (SDMA-BSA immunogen)
- assay.overview: Competitive ELISA, specificity of rabbit anti-SDMA antiserum, Rabbit #157
- Type: binding
- measurement.parameters: Rabbit # 157 antiserum (1:15K); competition with SDMA-HRP conjugate, absorbance 450 nm

Output reported IC 50 of the compound CN(C)C(=N)NCCCC(N)C(=O)O (stereo not shown) on rabbit anti-SDMA antibody in serum, Rabbit # 157 (SDMA-BSA immunogen).
>100 µg/mL

Quote IC 50 with test system rabbit anti-SDMA antibody in serum, Rabbit # 157 (SDMA-BSA immunogen) for CNC(=N)NCCCC(N)C(=O)O (stereo not shown)
>100 µg/mL

Give IC 50 only, for C/N=C(\NC)NCCCC(N)C(=O)O (stereo not shown) , using rabbit anti-SDMA antibody in serum, Rabbit # 157 (SDMA-BSA immunogen) data.
1.6 µg/mL

Retrieve IC 50 on rabbit anti-SDMA antibody in serum, Rabbit # 157 (SDMA-BSA immunogen); query `N=C(N)NCCC[C@H](N)C(=O)O`
>100 µg/mL

---

- System: rabbit anti-SDMA antibody in serum, Rabbit # 157 (SDMA-BSA immunogen)
- assay.overview: Competitive ELISA, specificity of rabbit anti-SDMA antiserum, Rabbit #157
- Assay type: binding
- measurement.parameters: Rabbit # 157 antiserum (1:15K); IC50 of SDMA / IC50 of competitor x 100
% Cross Reactivity values for the molecules below.

Study these solved cases before continuing.
CN(C)C(=N)NCCCC(N)C(=O)O (stereo not shown)
<1%
CNC(=N)NCCCC(N)C(=O)O (stereo not shown)
<1%

# return % Cross Reactivity of `N=C(N)NCCC[C@H](N)C(=O)O` (system: rabbit anti-SDMA antibody in serum, Rabbit # 157 (SDMA-BSA immunogen))
<1%

// output % Cross Reactivity; input C/N=C(\NC)NCCCC(N)C(=O)O (stereo not shown) ; system rabbit anti-SDMA antibody in serum, Rabbit # 157 (SDMA-BSA immunogen)
100%
